- Target or test system: JAK3 (Homo sapiens, UniProt P52333)
- Construct: purchased Promega Corporation V3701
- Sequence (P52333 whole entry): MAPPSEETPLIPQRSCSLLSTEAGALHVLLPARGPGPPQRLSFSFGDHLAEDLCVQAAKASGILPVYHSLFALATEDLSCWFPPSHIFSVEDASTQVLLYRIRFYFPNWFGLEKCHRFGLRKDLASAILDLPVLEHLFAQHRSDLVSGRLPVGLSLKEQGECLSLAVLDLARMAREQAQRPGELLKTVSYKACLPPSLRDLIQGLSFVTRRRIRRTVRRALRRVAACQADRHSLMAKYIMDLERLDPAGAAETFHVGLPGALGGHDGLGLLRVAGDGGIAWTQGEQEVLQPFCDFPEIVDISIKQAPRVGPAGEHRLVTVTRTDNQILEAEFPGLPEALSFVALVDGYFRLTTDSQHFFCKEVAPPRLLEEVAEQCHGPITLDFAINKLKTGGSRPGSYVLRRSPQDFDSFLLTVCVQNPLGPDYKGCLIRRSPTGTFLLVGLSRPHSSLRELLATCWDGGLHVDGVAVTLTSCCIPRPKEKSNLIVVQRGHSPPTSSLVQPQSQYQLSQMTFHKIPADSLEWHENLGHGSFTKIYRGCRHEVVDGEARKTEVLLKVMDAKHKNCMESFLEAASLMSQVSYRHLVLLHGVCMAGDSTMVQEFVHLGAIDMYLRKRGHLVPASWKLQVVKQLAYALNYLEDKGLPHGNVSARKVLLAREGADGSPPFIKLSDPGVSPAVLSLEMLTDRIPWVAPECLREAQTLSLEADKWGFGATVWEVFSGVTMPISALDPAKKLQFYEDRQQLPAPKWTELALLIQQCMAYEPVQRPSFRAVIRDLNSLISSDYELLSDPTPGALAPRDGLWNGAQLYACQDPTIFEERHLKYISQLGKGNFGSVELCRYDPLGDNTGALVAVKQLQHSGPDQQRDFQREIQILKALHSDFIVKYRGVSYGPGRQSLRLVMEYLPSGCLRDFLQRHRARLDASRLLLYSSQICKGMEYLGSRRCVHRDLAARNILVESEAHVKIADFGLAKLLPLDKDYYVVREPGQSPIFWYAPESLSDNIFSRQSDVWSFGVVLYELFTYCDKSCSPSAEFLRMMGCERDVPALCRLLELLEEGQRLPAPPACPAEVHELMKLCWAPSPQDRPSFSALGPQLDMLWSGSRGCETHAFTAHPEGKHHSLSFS
- Method notes: Cell-free kinase assay JAK3
- Assay type: biochemical
- Experimental conditions: Km ATP (2.5 µM)
pIC50: −log10 of the molar value.

{"columns": ["Smiles text", "pIC50"],
 "data": [
  ["Fc1ccc(-c2cnc3[nH]cc(-c4ccnc(NC5CC5)n4)c3c2)cc1", 8.69]
]}

====

- Method notes: Pharmacokinetic study, dermal application
- Format: in vivo, C57BL/6 mice
- Experimental conditions: male, C57BL/6, mouse, topical or ocular; topical dose 30 mg/kg, plasma

{"columns": ["Smiles text", "Unit string", "Cmax"],
 "data": [
  ["Fc1ccc(-c2cnc3[nH]cc(-c4ccnc(NC5CC5)n4)c3c2)cc1", "nM", 480]
]}
